Origin of the recorded values: the pKa sets of Baltruschat and Czodrowski (2020)

conditions: acidic group
Measured pKa by item
Write the value as a bare number.

See these solved cases before continuing.
>>> value("C[n+]1cccc(C(=O)Cc2ccccc2)c1")
10.3
>>> value("Oc1ccc2c(c1)Cc1ccccc1-2")
9.51
>>> value("O=C(O)c1ccc([N+](=O)[O-])cc1")
3.43
>>> value("C#CCCCCC(=O)O")
4.58
>>> value("CCCCCC(=O)O")
4.85

Exercise: Please supply the value of reported pKa for the item "Cc1cccc(OCC(=O)O)c1"
Key: 3.18

Exercise: Please supply the value of reported pKa for the item "NC(=O)CCCCCCCCC(=O)NO"
Key: 9.49

Exercise: Please supply the value of reported pKa for the item "Cc1c[nH]cc1C(=O)O"
Key: 5.65

Exercise: Please supply the value of reported pKa for the item "c1ccc(CNc2nnc(-c3ccccc3)s2)cc1"
Key: 11.5

Exercise: Please supply the value of reported pKa for the item CC1(C)C=CC(C)(c2cc3ccc(=O)oc3cc2O)CC1 (stereo not given)
Key: 8.12

Exercise: Please supply the value of reported pKa for the item "CC1=NS(=O)(=O)c2cc(Cl)ccc2N1"
Key: 8.62

Exercise: Please supply the value of reported pKa for the item "O=C(O)c1ccccc1Br"
Key: 2.93

Exercise: Please supply the value of reported pKa for the item "COc1cccc[n+]1O"
Key: 1.23

Exercise: Please supply the value of reported pKa for the item "Cn1c(-c2ccccc2O)[nH+]c2ccccc21"
Key: 5.76

Exercise: Please supply the value of reported pKa for the item "C[n+]1cc(S)cc2ccccc21"
Key: 2.4

Exercise: Please supply the value of reported pKa for the item "COc1ccc(O)cc1[N+](=O)[O-]"
Key: 8.68
